- Tested on: Pseudomonas aeruginosa
- experiment: Static biofilm formation assay (crystal violet)
- Assay type: cell-based
- particulars: Pseudomonas aeruginosa, 24 h; Table 3; static; 100 (μM); read-out: Relative biological activity (%) Biofilm formation 100
property: activity at 100 µM

1. CCCC(O)CC(=O)/C=C/c1cccc(OC)c1 (centres unmarked) [Compound 11c] :: 73%
2. CCCCCC(=O)C#Cc1ccc(F)c(F)c1 :: 56%
3. CCCC(O)CC(=O)/C=C/c1ccc(O)c(OC)c1 (centres unmarked) [Compound 11a] :: 65%
4. CCCC(O)C#Cc1ccc(F)c(F)c1 (racemic) [Compound 33a, 1-(3,4-Difluorophenyl)hex-1-yn-3-ol] :: 60%
5. CCC[C@@H](O)C#Cc1ccc(F)c(F)c1 [Compound 33b, (R)-1-(3,4-Difluorophenyl)hex-1-yn-3-ol] :: 60%
6. CCCC(=O)NC1CCCC1 [Compound 1d, N-cyclopentylbutyramide, reference compound] :: 69%
7. CCCCCC(=O)/C=C/c1ccc(F)c(F)c1 [Compound 13a, (E)-1-(3,4-Difluorophenyl)oct-1-en-3-one] :: 61%
8. CCCCC(=O)C#Cc1ccc(F)c(F)c1 :: 55%

----------
# activity at 100 µM annotations
- experimental.target: RhlR (Pseudomonas aeruginosa, UniProt P54292)
- Construct: expressed in transfected cells; host or cells: E. coli sdiA variant co-transformed with pJN105R and pSC11 (RhlA::lacZ)
- Sequence (P54292 whole entry): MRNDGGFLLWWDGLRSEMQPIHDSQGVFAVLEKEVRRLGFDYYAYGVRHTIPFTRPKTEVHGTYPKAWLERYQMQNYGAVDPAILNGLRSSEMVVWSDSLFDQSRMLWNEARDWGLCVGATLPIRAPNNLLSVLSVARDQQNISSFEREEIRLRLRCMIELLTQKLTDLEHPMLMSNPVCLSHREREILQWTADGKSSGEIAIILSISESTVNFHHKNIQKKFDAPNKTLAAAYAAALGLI
- experiment: cell-based
- particulars: read-out: Relative RhlR activity Agonism, Table 2; footnotes not given; matches the 100 column of Table 3
property: activity at 100 µM (%)

1. CCCC(O)CC(=O)CCc1cc(F)cc(OC)c1 (stereo not shown) [Compound 12r] :: 3
2. CCCCC(=O)C#Cc1ccc(F)c(F)c1 :: 4
3. CCCC(O)CC(=O)CCc1ccc(O)c(OC)c1 (stereo not shown) :: 3
4. CCCCCC(O)C#Cc1ccc(O)c(OC)c1 (racemic) [Compound 23a] :: 3
5. CCCC(O)CC(=O)/C=C/c1ccc(OC)cc1 (stereo not shown) [Compound 11f] :: 1
6. CCCCCC(=O)/C=C/c1ccc(F)c(F)c1 [Compound 13a, (E)-1-(3,4-Difluorophenyl)oct-1-en-3-one] :: 4
7. CCCC(O)C#Cc1ccc(F)c(F)c1 (racemic) [Compound 33a, 1-(3,4-Difluorophenyl)hex-1-yn-3-ol] :: 3
8. CCCC(O)CC(=O)CCc1ccc(N(C)C)cc1 (stereo not shown) [Compound 12j] :: 1
9. CCCC(O)CC(=O)CCc1ccc(O)c(O)c1 (stereo not shown) [Compound 12k] :: 2
10. CCCCCC(=O)C#Cc1ccc(F)c(F)c1 :: 3
11. CCC[C@H](O)C#Cc1ccc(F)c(F)c1 [Compound 33c, (S)-1-(3,4-Difluorophenyl)hex-1-yn-3-ol] :: 3
12. CCCC(O)CC(=O)CCc1ccc(O)c(OCC)c1 (stereo not shown) [Compound 12n] :: 1
13. CCCC(O)CC(=O)CCc1ccc(O)c(F)c1 (stereo not shown) [Compound 12m] :: 1

----------
Each entry below carries its reported remaining activity at 100 µM.
- experimental.target: RhlR (Pseudomonas aeruginosa, UniProt P54292)
- Construct: expressed in transfected cells; host or cells: E. coli sdiA variant co-transformed with pJN105R and pSC11 (RhlA::lacZ)
- experiment: cell-based
- particulars: read-out: Relative RhlR activity Antagonism, Table 2; footnotes not given; 100 μM per Table 3; lower = stronger antagonism
property: remaining activity at 100 µM (%)

1. CCCC(O)CC(=O)CCc1ccc(O)cc1 (stereo not drawn) [Compound 12d, 5-Hydroxy-1-(4-hydroxyphenyl)octan-3-one] :: 64
2. CCCC(O)CC(=O)CCc1ccccc1 (stereo not drawn) [Compound 12b, 5-Hydroxy-1-phenyloctan-3-one] :: 88
3. CCCCCCC(O)CC(=O)CCc1ccc(O)c(OC)c1 (stereo not drawn) [Compound 5] :: 83
4. CCCC(O)CC(=O)CCc1ccc(F)cc1 (stereo not drawn) [Compound 12g, 1-(4-Fluorophenyl)-5-hydroxyoctan-3-one] :: 51
5. CCCCC[C@H](O)C#Cc1ccc(O)c(OC)c1 [Compound 23c] :: 34
6. CCCC(O)CC(=O)/C=C/c1ccc(N(C)C)cc1 (stereo not drawn) [Compound 11j] :: 53
7. CCCC(O)CC(=O)/C=C/c1ccc(O)c(O)c1 (stereo not drawn) [Compound 11k] :: 43
8. CCCC(O)CC(=O)/C=C/c1ccc(C)c(C)c1 (stereo not drawn) [Compound 11p] :: 72
9. CCCCC[C@@H](O)C#Cc1ccc(F)c(F)c1 [Compound 35b, (R)-1-(3,4-Difluorophenyl)oct-1-yn-3-ol] :: 72
10. CCCCCC(O)C#Cc1ccc(O)c(OC)c1 (racemic) [Compound 23a] :: 32
11. CCCC(O)CC(=O)CCc1ccc(O)c(OCC)c1 (stereo not drawn) [Compound 12n] :: 98
12. CCCC(O)CC(=O)/C=C/c1cccc(OC)c1 (stereo not drawn) [Compound 11c] :: 94
13. CCCC[C@@H](O)C#Cc1ccc(F)c(F)c1 [Compound 34b, (R)-1-(3,4-Difluorophenyl)hept-1-yn-3-ol] :: 67
14. CCCC(O)CC(=O)/C=C/c1ccc(F)c(OC)c1 (stereo not drawn) [Compound 11q] :: 43
15. CCCC(O)CC(=O)CCc1ccc(C)c(C)c1 (stereo not drawn) [Compound 12p] :: 82
16. CCCC(O)CC(=O)CCc1ccc(OC)c(OC)c1 (stereo not drawn) [Compound 12l] :: 94
17. CCCC(O)CC(=O)CCc1ccc(O)c(F)c1 (stereo not drawn) [Compound 12m] :: 73
18. CCCC(O)CC(=O)CCc1cccc(OC)c1 (stereo not drawn) [Compound 12c, 5-Hydroxy-1-(3-methoxyphenyl)octan-3-one] :: 90
19. CCCC(O)CC(=O)/C=C/c1ccc(O)cc1 (stereo not drawn) [Compound 11d] :: 51
20. CCCCC[C@H](O)C#Cc1ccc(F)c(F)c1 [Compound 35c, (S)-1-(3,4-Difluorophenyl)oct-1-yn-3-ol] :: 67
21. CCCCCC(O)CCc1ccc(F)c(F)c1 (stereo not drawn) [Compound 16a, 1-(3,4-Difluorophenyl)octan-3-ol] :: 61
22. CCCCC(O)C#Cc1ccc(F)c(F)c1 (racemic) [Compound 34a, 1-(3,4-Difluorophenyl)hept-1-yn-3-ol] :: 71
23. CCCC(O)CC(=O)CCc1ccc(OC)cc1 (stereo not drawn) [Compound 12f, 5-Hydroxy-1-(4-methoxyphenyl)octan-3-one] :: 71
24. CCCC(O)CC(=O)CCc1cccc(O)c1 (stereo not drawn) [Compound 12e, 5-Hydroxy-1-(3-hydroxyphenyl)octan-3-one] :: 81
25. CCCC(O)CC(=O)CCc1ccc(Cl)cc1 (stereo not drawn) [Compound 12h, 1-(4-Chlorophenyl)-5-hydroxyoctan-3-one] :: 69
26. CCCC(O)CC(=O)/C=C/c1ccc(O)c(F)c1 (stereo not drawn) [Compound 11m] :: 60
27. CCCCCC(=O)C#Cc1ccc(O)c(OC)c1 [Compound 21] :: 29
28. CCCCCC(O)/C=C/c1ccc(F)c(F)c1 (stereo not drawn) [Compound 15a, (E)-1-(3,4-Difluorophenyl)oct-1-en-3-ol] :: 55
29. CCCCCCCCC(O)CC(=O)CCc1ccc(O)c(OC)c1 (stereo not drawn) [Compound 7] :: 41
30. CCCC(O)CC(=O)/C=C/c1ccc(F)c(F)c1 (stereo not drawn) [Compound 11o] :: 20
